Target: Cellular tumor antigen p53 (Homo sapiens) (UniProt P04637)
Sequence (P04637 whole entry, looked up): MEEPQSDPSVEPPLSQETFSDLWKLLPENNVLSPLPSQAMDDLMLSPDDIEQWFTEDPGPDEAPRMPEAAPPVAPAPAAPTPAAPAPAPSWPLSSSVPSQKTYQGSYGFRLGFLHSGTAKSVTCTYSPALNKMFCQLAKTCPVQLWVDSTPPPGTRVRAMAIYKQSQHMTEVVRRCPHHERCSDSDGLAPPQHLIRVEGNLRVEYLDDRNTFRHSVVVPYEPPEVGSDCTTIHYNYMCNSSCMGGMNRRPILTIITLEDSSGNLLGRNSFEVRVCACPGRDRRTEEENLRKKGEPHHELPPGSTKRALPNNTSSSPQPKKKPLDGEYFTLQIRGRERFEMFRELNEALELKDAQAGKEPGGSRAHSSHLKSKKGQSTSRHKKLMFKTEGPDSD
Assay: Primary qHTS for small molecule compounds that upregulate eGFP-tagged delta133p53alpha (in N-terminal) cells. (AID 2060322);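 further: cells pre-induced with doxycycline then dosed without doxycycline; series mostly up to about 56 µM; 0% = DMSO vehicle and 100% = reference activator; nearly all actives have a fitted effect of over 75% in size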
Conditions: NCI-H358 eGFP-delta133p53alpha fluorescence, 24 h; hits give high values
Records with an inconclusive call do not appear.
measured metric: activation (%)
State the answer as a number, implicitly in %.

Cc1cnc(Nc2cccc(CN3CCOCC3)c2)nc1Nc1cccc(S(=O)(=O)NC(C)(C)C)c1 :: 11
CC1CC(OC(=O)C(O)c2ccccc2)CC(C)(C)C1 (centres undefined) :: 1.43
CC12CCC3C(C)(C)C(O)CCC3(C)C1Cc1c(oc(C(=O)O)cc1=O)O2 (centres undefined) :: -9.92
COC(O)(CC(C)C)C1Oc2cc(C)[nH]c(=O)c2O1 (centres undefined) :: -26.7
CC1OC(O[C@H]2CC[C@@]3(C)C(CC[C@]4(C)C3CC=C3C5CC(C)(C)CC[C@]5(C(=O)OC5OC(CO)C(OC6OC(COC7OCC(O)C(O)C7O)C(O)C(O)C6O)C(O)C5O)CC[C@]34C)C2(C)C)C(O)C(O)C1OC1OCC(OC2OCC(O)C(O)C2O)C(O)C1O (some centres undefined) :: -15.3

Reported activation for CCN(CC)CCCCCCNc1cc(OC)cc2c(C)ccnc12 was -2.86

Reported activation for CC1CCC2(C(=O)O)CCC3(C)C(=CCC4C5(C)CCC(OC(=O)/C=C/c6ccccc6)C(C)(C)C5CCC43C)C2C1C (centres undefined) was -8.4

Reported activation for Cc1nnc(C(C)C)n1C1CC2CCC(C1)N2CC[C@H](NC(=O)C1CCC(F)(F)CC1)c1ccccc1 (some centres undefined) was -6.68
